From: ChEMBL document CHEMBL4138170

test system: HepG2; assay: Antiproliferative activity against human HepG2 cells after 48 hrs by MTT assay; format: functional, cell-based; conditions: HepG2, 48 h
Label key: Yes means IC50 under 30 µM; No means IC50 of 30 µM or more.

Exercise: Find out if reported IC50 for "CCCNCCCCNCCCCNCCCCN1C(=O)c2cccc3cccc(c23)C1=O" is less than 30 µM
Solution: No

Exercise: Find out if reported IC50 for "O=C1c2cccc3cccc(c23)C(=O)N1CCCCNCCCCNCCCCNC1CC1" is less than 30 µM
Solution: Yes

Exercise: Find out if reported IC50 for "CCCNCCCNCCCNCCCN1C(=O)c2cccc3cccc(c23)C1=O" is less than 30 µM
Solution: Yes

Exercise: Find out if reported IC50 for "O=C1c2cccc3cccc(c23)C(=O)N1CCCNCCCCNCCCNC1CCCCC1" is less than 30 µM
Solution: Yes

Exercise: Find out if reported IC50 for "O=C1c2cccc3cccc(c23)C(=O)N1CCCNCCCCNCCCNC1CC1" is less than 30 µM
Solution: Yes
